target: Cannabinoid receptor 2 (Homo sapiens, UniProt P34972); experiment: Agonist activity at human CB2-receptor expressed in CHO-K1 cells coexpressing G-alpha16 by Fluo-4-AM dye based calcium mobilization assay; type: functional, cell-based; details: cho-k1
Sequence (P34972 whole entry): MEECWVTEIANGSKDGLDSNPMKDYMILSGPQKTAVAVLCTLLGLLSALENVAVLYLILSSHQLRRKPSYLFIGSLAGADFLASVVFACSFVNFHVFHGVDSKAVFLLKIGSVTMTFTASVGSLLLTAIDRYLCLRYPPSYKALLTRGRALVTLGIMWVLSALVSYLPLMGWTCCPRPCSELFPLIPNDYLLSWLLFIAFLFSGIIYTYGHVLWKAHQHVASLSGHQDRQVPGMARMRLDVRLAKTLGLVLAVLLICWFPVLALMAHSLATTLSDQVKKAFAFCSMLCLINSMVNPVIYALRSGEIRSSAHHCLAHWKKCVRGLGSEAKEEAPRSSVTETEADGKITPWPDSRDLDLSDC
measurement kind: EC50

{"substance smiles": "O=C(NC12CC3CC(CC(C3)C1)C2)c1c[nH]c2ncccc12", "EC50": "Not Active"}
{"substance smiles": "O=C(NC12CC3CC(CC(C3)C1)C2)c1nc2ccccc2n1CCN1CCOCC1", "EC50": "Not Active"}
{"substance smiles": "O=C(NC12CC3CC(CC(C3)C1)C2)c1cn(CCN2CCOCC2)c2ccncc12", "EC50": "Not Active"}
{"substance smiles": "O=C(NC12CC3CC(CC(C3)C1)C2)c1cn(CCN2CCOCC2)c2cccnc12", "EC50": "Not Active"}
{"substance smiles": "CCCCCn1cc(C(=O)NC23CC4CC(CC(C4)C2)C3)c2ncccc21", "EC50": "Not Active"}

The reported value for O=C(NC12CC3CC(CC(C3)C1)C2)c1cc2ncccc2n1CCN1CCOCC1 in terms of EC50 is Not Active

CCCCCn1cc(C(=O)NC23CC4CC(CC(C4)C2)C3)c2cnccc21 yielded EC50 of Not Active

* * *

biological target: Cannabinoid receptor 2 (Homo sapiens, UniProt P34972); assay: Agonist activity at human CB2-receptor expressed in CHO-K1 cells coexpressing G-alpha16 by Fluo-4-AM dye based calcium mobilization assay; type: functional, cell-based; conditions: read-out: EC50
measurement kind: pEC50
// returns pEC50 (minus log10 of molar concentration), number only

{"substance smiles": "O=C(NC12CC3CC(CC(C3)C1)C2)c1cc2cnccc2[nH]1", "reported value": 5.70}
{"substance smiles": "O=C(NC12CC3CC(CC(C3)C1)C2)c1cc2ncccc2[nH]1", "reported value": 6.23}

Tested system Cannabinoid receptor 2 (Homo sapiens, UniProt P34972); pEC50 recorded for O=C(NC12CC3CC(CC(C3)C1)C2)c1cn(CCN2CCOCC2)c2ncccc12 was 7.32

// assay Cannabinoid receptor 2 (Homo sapiens, UniProt P34972), entry CCCCCn1c(C(=O)NC23CC4CC(CC(C4)C2)C3)nc2ccccc21 , pEC50 value = 6.49

* * *

molecular target: Cannabinoid receptor 2 (Homo sapiens, UniProt P34972); assay: Antagonist activity at human CB2-receptor expressed in CHO-K1 cells coexpressing G-alpha16 pre-incubated for 10 mins and later treated with 100 nM CB-receptor agonist, CP55940 by Fluo-4-AM dye based calcium mobilization assay; format: functional, cell-based; conditions: cho-k1
measurement kind: IC50

Some solved entries appear below for comparison.
{"substance smiles": "O=C(NC12CC3CC(CC(C3)C1)C2)c1cc2ncccc2[nH]1", "system name": "Cannabinoid receptor 2 (Homo sapiens, UniProt P34972)", "IC50": "Not Active"}
{"substance smiles": "CCCCCn1c(C(=O)NC23CC4CC(CC(C4)C2)C3)cc2cnccc21", "system name": "Cannabinoid receptor 2 (Homo sapiens, UniProt P34972)", "IC50": "Not Active"}
{"substance smiles": "O=C(NC12CC3CC(CC(C3)C1)C2)c1c[nH]c2cccnc12", "system name": "Cannabinoid receptor 2 (Homo sapiens, UniProt P34972)", "IC50": "Not Active"}
{"substance smiles": "O=C(NC12CC3CC(CC(C3)C1)C2)c1cc2cccnc2[nH]1", "system name": "Cannabinoid receptor 2 (Homo sapiens, UniProt P34972)", "IC50": "Not Active"}
{"substance smiles": "O=C(NC12CC3CC(CC(C3)C1)C2)c1nc2ccccc2[nH]1", "system name": "Cannabinoid receptor 2 (Homo sapiens, UniProt P34972)", "IC50": "Not Active"}

In plain terms, O=C(NC12CC3CC(CC(C3)C1)C2)c1cc2cnccc2n1CCN1CCOCC1 has a documented IC50 of Not Active

For reference, reported IC50 for CCCCCn1c(C(=O)NC23CC4CC(CC(C4)C2)C3)cc2ncccc21 stands at Not Active

The compound CCCCCn1cc(C(=O)NC23CC4CC(CC(C4)C2)C3)c2cccnc21 showed IC50 equal to Not Active

Short answer for O=C(NC12CC3CC(CC(C3)C1)C2)c1c[nH]c2ccncc12 : IC50 was Not Active

Sure, the documented IC50 for CCCCCn1c(C(=O)NC23CC4CC(CC(C4)C2)C3)nc2ccccc21 is Not Active
